Source: PubChem BioAssay (NCI)

- Tested on: PC-3 prostate
- assay.summary: NCI-60 one-dose screen, 48 h (100 = growth as untreated, 0 = no growth, -100 = all killed)
- test.context: 10 µM unless noted
- Protocol: Growth inhibition of the PC-3 human tumor cell line is measured as a screen for anti-cancer activity. Cells are grown in 96 well plates and exposed to the test compound for 48 hours. Compounds are tested at a single concentration, which is 10^-5 M for most compounds. The reported endpoint is percent growth (GI% or GIPRCNT), where numbers from 0 - 100% represent growth inhibition, and numbers from -100% - 0 represent cell death. For example, a value of 40 represents 60% growth inhibition. […]
This is part of a sample that, as a whole, favours compounds with a hit. Of some 83,000 tested, about 20% had one in any assay.
Outcome label depends on growth relative to 60%: at/above gives met, below gives not met.

# compound, test.system, group
data = [
    ("O=C(/C=C/Nc1ccc(S(=O)(=O)Nc2ncccn2)cc1)c1ccc(N=Cc2c(O)[nH]c3ccccc23)cc1", "PC-3 prostate", "met"),
    ("CCCCCCNC(=O)Oc1ccc(/C(=C(/C)c2ccc(Cl)cc2)c2ccc(OCCN3CCCCCC3)cc2)cc1", "PC-3 prostate", "not met"),
    ("CCC1=Cc2c(OC)cccc2OC12C=Cc1c(OC)cccc1O2 (stereo unspecified)", "PC-3 prostate", "not met"),
    ("CCOC(=O)C1=C(C)NC(C)=C(C(=O)OC(C)C)C1c1cccc(C#N)c1 (stereo unspecified)", "PC-3 prostate", "met"),
]

Moving on to another compound below.
**Query** Entry CC(C)NC(=O)c1cc(-c2ccc(NC(=O)Nc3ccc(F)c(C(F)(F)F)c3)cc2)nc2cccnc12 : is its growth no less than 60%?
**Result** met

###

- Tested on: MDA-MB-435 melanoma
- assay.summary: NCI-60 one-dose screen, 48 h
- test.context: 10 µM unless noted
About 83,000 compounds went through this panel and 20% of them were active in at least one assay; those are over-represented in the sample as a whole. Calls of active or inactive are those of the source. Rule for the calls: active = growth percent below 10; inactive = the rest.
Permitted responses: YES (active), NO (inactive)

# compound, group
records = [
    ("O=C(/C=C/c1ccccc1Cl)Nc1ncc(Cc2cc(Cl)ccc2Cl)s1", "YES"),
    ("C#C[C@]1(O)CC[C@H]2[C@@H]3CC=C4c5sc(Nc6ncccc6C)nc5CC[C@]4(C)[C@H]3CC[C@@]21C", "YES"),
    ("CC/C(=C(/c1ccc(Cl)cc1)c1ccc(OCCN)cc1)c1ccccc1", "NO"),
    ("COc1ccc([C@@H]2C(=O)N(c3cc(OC)c(OC)c(OC)c3)[C@H]2c2ccc(OC)c(O)c2)cc1", "YES"),
    ("O=C1C(SCc2ccccc2)=C(Cl)CN1c1ccc(Cl)cc1", "NO"),
    ("O=C(N/N=C\\c1ccc([N+](=O)[O-])cc1)c1ccc2nc(-c3ccc(Br)cc3)[nH]c2c1", "NO"),
]

**Query** I would be grateful if you could indicate the recorded call for CC(=O)OC[C@@]12Oc3c(cccc3-c3ccc(O)c4c3O[C@]3(COC(C)=O)C(=C4O)C(=O)C[C@H](C)[C@@H]3OC(C)=O)C(O)=C1C(=O)C[C@H](C)[C@@H]2OC(C)=O .
**Result** NO

**Query** Entry CNC(=O)Nc1ccc(Nc2cc(-c3ccc(-n4cccn4)cc3)[nH]n2)c(C)c1 : call = ?
**Result** NO

###

- Test system: RXF 393 renal
- assay.summary: NCI-60 one-dose screen, 48 h (100 = growth as untreated, 0 = no growth, -100 = all killed)
- test.context: 10 µM unless noted
- Experimental: Cells are grown in 96 well plates and exposed to the test compound for 48 hours. Compounds are tested at a single concentration, which is 10^-5 M for most compounds. The reported endpoint is percent growth (GI% or GIPRCNT), where numbers from 0 - 100% represent growth inhibition, and numbers from -100% - 0 represent cell death. For example, a value of 40 represents 60% growth inhibition. A value of 0 means no net growth occurred over the course of the experiment. […]
Compounds without any hit were thinned out: in the full panel of roughly 83,000, 20% have a hit.
Param label: returns 1 (yes) when growth < 10%, returns 0 (no) otherwise, including exact equality.

# molecule, group
data = [
    ("O=C(N/N=C\\c1ccc([N+](=O)[O-])cc1)c1ccc2nc(-c3ccc(Br)cc3)[nH]c2c1", "0 (no)"),
    ("C=C(C)[C@@H]1CC[C@]2(COCCCNCCCN)CC[C@]3(C)[C@H](CC[C@@H]4[C@@]5(C)CC[C@H](O)C(C)(C)[C@@H]5CC[C@]43C)[C@@H]12", "1 (yes)"),
    ("CC[C@]12C=CCN3CC[C@]4(C(=C(C(=O)OC)C1)Nc1cc5c(cc14)[C@@H]1[C@H](O5)[C@@H](O)[C@@]4(CC)CC(C(=O)OC)=C5Nc6cc(O)ccc6[C@@]56CCN1C46)C32 (some centres undefined)", "1 (yes)"),
    ("C[C@H](Nc1ncnc2ccc(-c3cnc(Cl)c(NS(C)(=O)=O)c3)cc12)c1ccccc1", "1 (yes)"),
    ("NS(=O)(=O)c1nnc(/N=C/c2c(O)[nH]c3ccccc23)s1", "0 (no)"),
    ("O=C(CSc1nnc(-c2cccs2)n1-c1ccccc1)Nc1ccccc1", "0 (no)"),
]

**Query** For C#Cc1nc(/C=C/C(=O)NO)cs1 , is the recorded growth below the cut-off of 10%?
**Result** 1 (yes)

**Query** Problem: For the molecule Cc1[nH]c(C(=O)Nc2ccccc2OCc2cccc(C(=O)NC3CCCNC3)c2)c(Cl)c1Cl (centres undefined) , is growth under 10%?
**Result** 1 (yes)

**Query** Record CCc1cc2c(cc1Cl)nc1c(=O)[nH]c(=O)nc-1n2CCOCC(C)(C)C : is its growth strictly below 10%?
**Result** 0 (no)

**Query** Consider the molecule N#C/C(=C\c1ccc(-c2ccc(Cl)cc2)o1)C(=O)Nc1ncc(Cc2ccc(Br)cc2)s1 . Is its growth strictly less than 10%?
**Result** 0 (no)

**Query** Regarding O=C(/C=C/Nc1ccc(S(=O)(=O)Nc2ncccn2)cc1)c1ccc(N=Cc2c(O)[nH]c3ccccc23)cc1 , kindly confirm whether its growth is beneath 10%.
**Result** 0 (no)

**Query** Lab note: growth threshold 10%. Does this molecule come in strictly under it? Cc1ccc2c(n1)C(=O)C(Cl)=C(Nc1ccc(C)c(C)c1)C2=O
**Result** 0 (no)

**Query** # check: growth < 10% for NC(N)=NS(=O)(=O)c1ccc(N=Nc2c(N)nn(-c3ccc([N+](=O)[O-])cc3[N+](=O)[O-])c2N)cc1
**Result** 0 (no)

**Query** In plain terms, does O=C(N/N=C/c1cc2ccccc2nc1Cl)c1cc(-c2nc3ccccc3[nH]2)nc2ccccc12 come in under 10% for growth?
**Result** 0 (no)

###

- Tested on: NCI-H23 lung
- assay.summary: NCI-60 one-dose screen, 48 h
- test.context: 10 µM unless noted
This is part of a sample that, as a whole, favours compounds with a hit. Of some 83,000 tested, about 20% had one in any assay. Active and inactive are the calls of the source. How the source made its calls: active means growth percent below 10; inactive means the rest.
Write down one outcome, taken from true (1) = active, false (0) = inactive

Worked examples follow.
# molecule.smiles, group
records = [
    ("N/C(=N\\C(N)=N\\c1nc2ccccc2s1)c1ccc(Cl)cc1", "false (0)"),
    ("O=[N+]([O-])c1ccc(NC(=S)NNC(=S)Nc2ccc(F)cc2)cc1", "false (0)"),
    ("CNC(=O)c1cc(-n2ccc3cc(NC(=O)Nc4ccc(N5CCN(C)CC5)c(C(F)(F)F)c4)ccc32)ccn1", "false (0)"),
    ("C/C(=N\\NC(=O)/C=C/CC(=O)O)c1nnn(-c2ccc([N+](=O)[O-])cc2)c1C", "false (0)"),
    ("NC(=O)c1ncn2c(=O)n(CCF)nnc12", "false (0)"),
]

**Query** Each molecule tested received a call. Report the one for CN1CCN(c2ccc(C(=O)/C=C/c3cc(F)cc(C(F)(F)F)c3)cc2)CC1 .
**Result** false (0)

**Query** Dear all, I need the recorded test outcome for CC1(C)CC[C@]2(C(=O)O)CC[C@]3(C)C(=CC[C@@H]4[C@@]5(C)CC[C@H](NOCCCN)C(C)(C)[C@@H]5CC[C@]43C)[C@@H]2C1 , thank you.
**Result** false (0)

**Query** Just curious, what result did CCOC(=O)c1ccc(NC2=CC(=O)C(C)=C(C)C2=O)cc1 get here?
**Result** false (0)

**Query** Entry O=C(O)CC1CCN(c2ccc3nnc(Cl)n3n2)CC1 : call = ?
**Result** false (0)

**Query** Returns: the outcome recorded for Cn1ncc2c(C(=O)c3ccc(F)cc3)nc(C(C)(C)C)nc21 in this assay.
**Result** false (0)

**Query** Could you check what this test reported for C#Cc1nc(/C=C\CCCCCCC(=O)NO)cs1 ?
**Result** true (1)

**Query** Recorded test outcome, item CCOC(=O)c1cccnc1Nc1ccc(NC(=O)Nc2ccc(Cl)c(C(F)(F)F)c2)cc1
**Result** false (0)
